Each item that follows carries a reported IC50.
Target: Inhibitor of nuclear factor kappa-B kinase subunit beta (Homo sapiens, UniProt O14920)
Sequence (O14920 whole entry): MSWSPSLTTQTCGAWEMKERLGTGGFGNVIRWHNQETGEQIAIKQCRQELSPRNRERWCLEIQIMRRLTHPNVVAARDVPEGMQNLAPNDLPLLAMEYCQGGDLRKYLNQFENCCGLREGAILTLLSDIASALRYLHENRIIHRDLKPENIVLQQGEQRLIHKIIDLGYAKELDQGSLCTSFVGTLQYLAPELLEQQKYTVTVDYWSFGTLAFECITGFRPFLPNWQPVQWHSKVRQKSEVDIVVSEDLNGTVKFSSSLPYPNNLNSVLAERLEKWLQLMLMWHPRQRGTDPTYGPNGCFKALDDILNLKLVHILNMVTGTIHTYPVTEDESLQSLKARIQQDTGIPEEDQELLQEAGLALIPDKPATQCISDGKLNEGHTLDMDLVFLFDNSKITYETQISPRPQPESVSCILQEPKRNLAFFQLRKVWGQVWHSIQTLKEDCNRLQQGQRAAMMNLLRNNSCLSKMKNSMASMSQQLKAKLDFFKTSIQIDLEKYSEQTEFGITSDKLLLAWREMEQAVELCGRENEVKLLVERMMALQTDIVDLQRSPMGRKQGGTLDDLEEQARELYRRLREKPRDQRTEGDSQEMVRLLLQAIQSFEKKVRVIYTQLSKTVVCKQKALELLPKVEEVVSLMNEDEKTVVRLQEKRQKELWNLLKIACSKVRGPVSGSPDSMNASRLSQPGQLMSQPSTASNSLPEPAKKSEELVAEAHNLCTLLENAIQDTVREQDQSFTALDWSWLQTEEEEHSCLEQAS
Assay: Inhibition of IKK-beta
Numeric answer only, unit µM assumed.

Reference set (5 entries):
input: Please look up its IC50: NC(=O)c1cc(-c2cccc(CO)c2)cc2cc[nH]c12
output: 2.51

input: Please look up its IC50: NC(=O)c1cc(-c2ccccc2)cc2cc[nH]c12
output: 1.58

input: Please look up its IC50: CS(=O)(=O)Nc1ccc(-c2cc(C(N)=O)c3[nH]ccc3c2)cc1
output: 0.501

input: Please look up its IC50: COc1ccncc1-c1cc(C(N)=O)c2[nH]ccc2c1
output: 1.58

input: Please look up its IC50: N#Cc1cccc(-c2cc(C(N)=O)c3[nH]ccc3c2)c1
output: 1.58

From here, focus on the item given below.
input: Please look up its IC50: NC(=O)c1cc(-c2ccccc2Cl)cc2cc[nH]c12
output: 6.31

Origin of values: ChEMBL document CHEMBL1759890
